tested on: MDA-MB-231; test: Cytotoxicity against human MDA-MB-231 cells assessed as cell growth at 10 uM after 48 hrs by SRB assay relative to untreated control; assay type: functional; details: MDA-MB-231, 48 h, read-out: Activity
Outcome label depends on growth at 10 µM relative to 90%: at/above gives yes (1), below gives no (0).

# SMILES STRUCTURE, CLASS NAME
rows = [
    ("COc1ccc(C2=Nc3nc4ccccn4c3C(=O)[C@H](C)N2)cc1", "no (0)"),
    ("C[C@@H]1NC(c2ccc(N(C)C)cc2)=Nc2nc3ccccn3c2C1=O", "no (0)"),
    ("C[C@@H]1NC(c2ccc(Br)cc2)=Nc2nc3ccccn3c2C1=O", "no (0)"),
    ("Cc1ccc(C2=Nc3nc4ccccn4c3C(=O)[C@H](Cc3ccccc3)N2)cc1", "yes (1)"),
    ("COc1ccc(C2=Nc3nc4ccccn4c3C(=O)[C@H](Cc3ccccc3)N2)cc1", "yes (1)"),
    ("Cc1ccc(C2=Nc3nc4ccccn4c3C(=O)[C@@H]3CCCN23)cc1", "yes (1)"),
    ("O=C1c2c(nc3ccccn23)NC(=O)N2CCC[C@@H]12", "yes (1)"),
    ("C[C@H]1NC(c2ccc(Br)cc2)=Nc2nc3ccccn3c2C1=O", "no (0)"),
    ("O=C1c2c(nc3ccccn23)N=C(c2ccccc2)N2CCC[C@@H]12", "yes (1)"),
    ("O=C1Nc2nc3ccccn3c2C(=O)[C@H](Cc2ccccc2)N1", "yes (1)"),
    ("Cc1ccc(C2=Nc3nc4ccccn4c3C(=O)[C@H](C)N2)cc1", "no (0)"),
    ("Cc1ccccc1C1=Nc2nc3ccccn3c2C(=O)[C@H](Cc2ccccc2)N1", "yes (1)"),
]

###

Reported growth at 10 µM by item:
test system: SF-268; test: Cytotoxicity against human SF268 cells assessed as cell growth at 10 uM after 48 hrs by SRB assay relative to untreated control; format: functional; settings: SF-268, 48 h, read-out: Activity
ASSAY ENDPOINT: growth at 10 µM (%)

# SMILES STRUCTURE, ASSAY ENDPOINT, VALUE REPORTED
data = [
    ("O=C1c2c(nc3ccccn23)NC(=O)N2CCC[C@@H]12", "growth at 10 µM", 100),
    ("C[C@@H]1NC(c2ccccc2)=Nc2nc3ccccn3c2C1=O", "growth at 10 µM", 103),
    ("Cc1ccc(C2=Nc3nc4ccccn4c3C(=O)[C@@H]3CCCN23)cc1", "growth at 10 µM", 88),
]

###

test system: COLO 205; test: Cytotoxicity against human COLO205 cells assessed as cell growth at 10 uM after 48 hrs by SRB assay relative to untreated control; format: functional; settings: COLO 205, 48 h, read-out: Activity

# SMILES STRUCTURE, growth at 10 µM / %
rows = [
    ("O=C1c2c(nc3ccccn23)N=C(c2ccccc2)N2CCC[C@@H]12", 99.3),
    ("O=C1c2c(nc3ccccn23)NC(=O)N2CCC[C@@H]12", 123),
    ("Cc1ccccc1C1=Nc2nc3ccccn3c2C(=O)[C@H](Cc2ccccc2)N1", 107),
    ("O=C1Nc2nc3ccccn3c2C(=O)[C@H](Cc2ccccc2)N1", 126),
    ("C[C@@H]1NC(c2ccc(N(C)C)cc2)=Nc2nc3ccccn3c2C1=O", 94.2),
    ("COc1ccc(C2=Nc3nc4ccccn4c3C(=O)[C@H](C)N2)cc1", 97.5),
    ("Cc1ccc(C2=Nc3nc4ccccn4c3C(=O)[C@H](Cc3ccccc3)N2)cc1", 113),
    ("COc1ccc(C2=Nc3nc4ccccn4c3C(=O)[C@H](Cc3ccccc3)N2)cc1", 127),
    ("Cc1ccc(C2=Nc3nc4ccccn4c3C(=O)[C@H](C)N2)cc1", 80.4),
    ("Cc1ccc(C2=Nc3nc4ccccn4c3C(=O)[C@@H]3CCCN23)cc1", 94.4),
]

meta.source: ChEMBL document CHEMBL3124806
